- Test system: IGROV1 ovarian
- procedure_text: NCI-60 one-dose screen, 48 h (100 = growth as untreated, 0 = no growth, -100 = all killed)
- test_parameters: 10 µM unless noted
This is part of a sample that, as a whole, favours compounds with a hit. Of some 83,000 tested, about 20% had one in any assay.
Below: a set of entries, each annotated with reported growth.
Give the number; % is assumed, so skip it.

Recorded results for 10 molecules are shown here.
# input Reported growth, molecule `Nc1nc(Nc2cc(Cl)cc(Cl)c2)nn1S(=O)(=O)c1ccc2ccccc2c1` : ____
# output 20.3

# input Reported growth, molecule CCOC(=O)C1CCNC(=O)C1=O (stereo not given) : ____
# output 130

# input Reported growth, molecule `Nc1cc2c(cc1C(=O)c1cccc(F)c1)OCCO2` : ____
# output 89.7

# input Reported growth, molecule `c1ccc(-c2nnc(-c3ccccn3)s2)nc1` : ____
# output 80.7

# input Reported growth, molecule `O=[N+]([O-])c1cccc(-c2nc3sccn3c2-c2ccnc(NCCCNS(=O)(=O)c3ccc(Cl)cc3)n2)c1` : ____
# output 43.3

# input Reported growth, molecule `CCCCN(CCCC)c1ccc(C(=N)c2ccc(N(CCCC)CCCC)cc2)cc1` : ____
# output -53.5

# input Reported growth, molecule `Fc1ccccc1-c1nc(-c2nc3cc(Cl)c(Cl)cc3[nH]2)c2ccccn12` : ____
# output 21.9

# input Reported growth, molecule COc1cc(C2NN=C3c4ccccc4CCC32)cc(OC)c1OC (stereo not given) : ____
# output 26.1

# input Reported growth, molecule `S=C1CC(=S)NC(=S)N1` : ____
# output 96.7

# input Reported growth, molecule CCCCCCCCCCCCNC(=O)[C@H]1CSC(c2cc3ccccc3s2)N1 (stereo not given in full) : ____
# output -63.2

New cases:
# input Reported growth, molecule `COc1cc(C(=O)/C=C/c2ccc3nc(-c4cc(F)cc(F)c4)sc3c2)cc(OC)c1OC` : ____
# output 96.6

# input Reported growth, molecule `O=C1NN(C(=O)c2ccc(Cl)cc2)C(c2ccccc2)=N/C1=C\c1cn(-c2ccccc2)nc1-c1ccccc1` : ____
# output 95.1

# input Reported growth, molecule COC(=O)C1CCCN1C(=O)[C@@H]1CCCN1C(=O)[C@H](Cc1c[nH]c2ccccc12)NC(=S)Nc1cc(C(F)(F)F)cc(C(F)(F)F)c1 (stereo not given in full) : ____
# output 47.1

# input Reported growth, molecule `COc1ccc(C(=O)c2cc(OC)c(OC)c(OC)c2OC)cc1O` : ____
# output 57.4

# input Reported growth, molecule `CN(CCCCN(C[C@H]1Cc2ncccc2CN1)[C@H]1CCCc2cccnc21)C1CCC(F)(F)CC1` : ____
# output 111

# input Reported growth, molecule `Nc1cccc(-c2nc3sccn3c2-c2ccnc(NCCNS(=O)(=O)c3ccc(C(F)(F)F)cc3)n2)c1` : ____
# output 36.3

# input Reported growth, molecule `COc1cc(C(=O)/C=C/c2c(C)n([O-])c3ccc(C(F)(F)F)cc3[n+]2=O)cc(OC)c1OC` : ____
# output 111

# input Reported growth, molecule `c1cc(C2=N[C@@H]3c4ccccc4C[C@@H]3O2)nc(C2=N[C@@H]3c4ccccc4C[C@@H]3O2)c1` : ____
# output 104

# input Reported growth, molecule `C=C[C@@H]1C[C@H](O)Cc2c(C)cc(C)cc2N1` : ____
# output 109

# input Reported growth, molecule `CC(C)(C)n1cc(-c2ccnc(NCCCNS(=O)(=O)c3ccc(Br)cc3)c2)c(-c2cccc(O)c2)n1` : ____
# output 34.9
